TESTED SYSTEM: T1, Human Serum Albumin (human, UniProt P02768 25-609)
T1 construct: also called HSA; antigen
T1 sequence (P02768 25-609 limits assumed): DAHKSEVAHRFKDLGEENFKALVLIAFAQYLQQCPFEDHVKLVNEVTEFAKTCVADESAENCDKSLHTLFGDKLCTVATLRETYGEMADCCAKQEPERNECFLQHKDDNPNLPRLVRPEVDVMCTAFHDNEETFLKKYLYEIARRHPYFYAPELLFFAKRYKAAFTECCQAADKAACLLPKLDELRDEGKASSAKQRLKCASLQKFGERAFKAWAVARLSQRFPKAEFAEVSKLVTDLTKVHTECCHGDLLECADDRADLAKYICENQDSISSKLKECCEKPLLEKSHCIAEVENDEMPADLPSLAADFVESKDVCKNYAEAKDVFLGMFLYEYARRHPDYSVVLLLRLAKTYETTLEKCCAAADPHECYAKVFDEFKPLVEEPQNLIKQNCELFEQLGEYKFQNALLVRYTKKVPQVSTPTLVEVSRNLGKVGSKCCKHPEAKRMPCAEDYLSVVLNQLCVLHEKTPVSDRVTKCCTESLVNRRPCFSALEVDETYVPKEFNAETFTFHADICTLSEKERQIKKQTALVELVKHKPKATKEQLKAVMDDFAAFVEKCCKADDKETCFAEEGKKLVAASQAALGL
ASSAY EXPLANATION: BIAcore, supernatant over immobilised HSA (6036 RU);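 further: expressed culture supernatants of mutant clones diluted 1:1 in HBS-EP buffer and screened for binding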
MEASURED QUANTITY: binding result

BINDER	RESULT
DOM7h-14 Q38V (other) VL: DIQMTQSPSSLSASVGDRVTITCRASQWIGSQLSWYQVKPGKAPKLLIMWRSSLQSGVPSRFSGSGSGTDFTLTISSLQPEDFATYYCAQGAALPRTFGQGTKVEIKR	binds
DOM7h-14 P44L (other) VL: DIQMTQSPSSLSASVGDRVTITCRASQWIGSQLSWYQQKPGKALKLLIMWRSSLQSGVPSRFSGSGSGTDFTLTISSLQPEDFATYYCAQGAALPRTFGQGTKVEIKR	binds
DOM7h-14 Q38I (other) VL: DIQMTQSPSSLSASVGDRVTITCRASQWIGSQLSWYQIKPGKAPKLLIMWRSSLQSGVPSRFSGSGSGTDFTLTISSLQPEDFATYYCAQGAALPRTFGQGTKVEIKR	binds
DOM7h-14 A43M (other) VL: DIQMTQSPSSLSASVGDRVTITCRASQWIGSQLSWYQQKPGKMPKLLIMWRSSLQSGVPSRFSGSGSGTDFTLTISSLQPEDFATYYCAQGAALPRTFGQGTKVEIKR	binds
